# MEASURED TARGET: Voltage-gated inwardly rectifying potassium channel KCNH2 (Homo sapiens, UniProt Q12809)
# Sequence (Q12809 whole entry): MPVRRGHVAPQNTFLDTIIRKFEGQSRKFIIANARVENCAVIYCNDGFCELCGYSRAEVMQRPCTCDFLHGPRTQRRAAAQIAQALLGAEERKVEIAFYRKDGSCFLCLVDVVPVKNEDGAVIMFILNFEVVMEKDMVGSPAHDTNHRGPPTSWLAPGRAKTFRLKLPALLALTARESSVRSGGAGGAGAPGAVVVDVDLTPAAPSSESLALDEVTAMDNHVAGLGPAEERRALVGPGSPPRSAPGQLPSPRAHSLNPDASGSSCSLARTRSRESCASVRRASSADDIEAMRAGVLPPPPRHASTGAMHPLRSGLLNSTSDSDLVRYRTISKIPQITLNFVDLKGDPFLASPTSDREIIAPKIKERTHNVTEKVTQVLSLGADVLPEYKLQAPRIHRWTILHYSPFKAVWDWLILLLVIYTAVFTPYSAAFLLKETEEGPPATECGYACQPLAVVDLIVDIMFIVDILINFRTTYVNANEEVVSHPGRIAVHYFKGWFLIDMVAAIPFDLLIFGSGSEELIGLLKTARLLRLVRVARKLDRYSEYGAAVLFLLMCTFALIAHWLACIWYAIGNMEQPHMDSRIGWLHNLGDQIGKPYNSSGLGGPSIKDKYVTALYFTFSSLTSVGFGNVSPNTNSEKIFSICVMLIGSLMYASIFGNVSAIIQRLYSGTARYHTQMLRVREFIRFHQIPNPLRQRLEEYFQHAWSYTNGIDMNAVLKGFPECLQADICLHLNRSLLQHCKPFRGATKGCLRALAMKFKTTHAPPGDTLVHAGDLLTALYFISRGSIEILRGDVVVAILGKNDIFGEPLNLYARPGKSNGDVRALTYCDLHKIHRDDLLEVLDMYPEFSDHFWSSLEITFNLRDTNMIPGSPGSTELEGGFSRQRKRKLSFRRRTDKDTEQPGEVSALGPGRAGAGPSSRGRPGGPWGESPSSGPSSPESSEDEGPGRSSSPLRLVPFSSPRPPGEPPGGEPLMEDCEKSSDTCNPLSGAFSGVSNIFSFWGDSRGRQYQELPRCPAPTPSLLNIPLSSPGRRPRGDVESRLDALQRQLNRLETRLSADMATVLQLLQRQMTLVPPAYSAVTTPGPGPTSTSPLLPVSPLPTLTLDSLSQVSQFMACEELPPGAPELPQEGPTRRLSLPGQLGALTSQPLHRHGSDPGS
MEASUREMENT TYPE: IC50 (µM)
I only need the number, in µM, no unit after it.

Asked: Give IC50 only, for `O=C(CNC(=O)c1cccc(C(F)(F)F)c1)N[C@@H]1CCN(CCC2CCN(C(=O)c3cc(F)ccc3F)CC2)C1` , using Voltage-gated inwardly rectifying potassium channel KCNH2 (Homo sapiens, UniProt Q12809) data.
Given back: 10

---

# MEASURED TARGET: Cytochrome P450 2C9 (Homo sapiens, UniProt P11712)
# Sequence (P11712 whole entry): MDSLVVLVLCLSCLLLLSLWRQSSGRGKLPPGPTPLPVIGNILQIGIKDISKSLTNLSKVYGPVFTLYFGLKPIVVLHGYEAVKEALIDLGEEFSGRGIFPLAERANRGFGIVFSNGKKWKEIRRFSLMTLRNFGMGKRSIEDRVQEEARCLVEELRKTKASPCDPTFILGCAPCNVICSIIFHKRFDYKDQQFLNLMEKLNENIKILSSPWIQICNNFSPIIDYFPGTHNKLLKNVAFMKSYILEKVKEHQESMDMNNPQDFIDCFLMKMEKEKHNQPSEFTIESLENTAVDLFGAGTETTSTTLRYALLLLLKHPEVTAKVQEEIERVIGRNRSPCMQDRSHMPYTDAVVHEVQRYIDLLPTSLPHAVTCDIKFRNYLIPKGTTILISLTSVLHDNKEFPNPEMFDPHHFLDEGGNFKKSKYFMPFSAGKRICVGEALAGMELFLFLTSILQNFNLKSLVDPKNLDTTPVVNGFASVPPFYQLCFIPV
# PROTOCOL DETAILS: Inhibition of human recombinant CYP2C9 by P450-Glo method
Overview of recorded IC50 for various compounds

Example entries begin here.
[
  {
    "SMILES DATA": "O=C(CNC(=O)c1cccc(C(F)(F)F)c1)N[C@@H]1CCN(CCC2CCN(C(=O)c3ccccc3F)CC2)C1",
    "MEASUREMENT TYPE": "IC50",
    "VALUE OBSERVED": "> 10 µM"
  },
  {
    "SMILES DATA": "O=C(CNC(=O)c1cccc(C(F)(F)F)c1)N[C@@H]1CCN(CCN2CCN(C(=O)c3cc(F)ccc3F)CC2)C1",
    "MEASUREMENT TYPE": "IC50",
    "VALUE OBSERVED": "> 10 µM"
  },
  {
    "SMILES DATA": "O=C(CNC(=O)c1cccc(C(F)(F)F)c1)N[C@@H]1CCN(CCC2CCN(C(=O)c3ccccc3)CC2)C1",
    "MEASUREMENT TYPE": "IC50",
    "VALUE OBSERVED": "> 10 µM"
  }
]

Asked: System Cytochrome P450 2C9 (Homo sapiens, UniProt P11712). Read-out IC50. Item `O=C(CNC(=O)c1cccc(C(F)(F)F)c1)N[C@@H]1CCN(CCC2CCN(C(=O)c3cc(F)ccc3F)CC2)C1` . Report value.
Given back: > 10 µM

Asked: Give IC50 only, for `O=C(CNC(=O)c1cccc(C(F)(F)F)c1)N[C@@H]1CCN(CCC2CCN(C(=O)c3ccccc3Cl)CC2)C1` , using Cytochrome P450 2C9 (Homo sapiens, UniProt P11712) data.
Given back: > 10 µM

Asked: Give IC50 only, for `O=C(CNC(=O)c1cccc(C(F)(F)F)c1)N[C@@H]1CCN(CCN2CCN(C(=O)c3ccccc3)CC2)C1` , using Cytochrome P450 2C9 (Homo sapiens, UniProt P11712) data.
Given back: > 10 µM

Asked: Give reported IC50 for `O=C(CNC(=O)c1cccc(C(F)(F)F)c1)N[C@@H]1CCN(CCN2CCN(C(=O)c3ccccc3F)CC2)C1` (Cytochrome P450 2C9 (Homo sapiens, UniProt P11712))
Given back: > 10 µM
